# Test system: leucemia L 1210 IGR
# measurement description: "in vivo" activity on leucemia L1210 IGR, 20 mg/kg i.p. days 1, 5, 9
# Design: species or system mouse
Attribute: relative increase in survival (T/C×100)
Would you mind answering with just the numeric figure?

CO[C@@H]1C[C@@H](O)[C@H](O)[C@@H](CNC(=O)N(CCCl)N=O)O1 : 362

-- ask // relative increase in survival (T/C×100) lookup, key: `CO[C@@H]1C[C@@H](NC(=O)N(CCCl)N=O)[C@H](O)[C@@H](CO)O1`
-- reply 556

====

# Tested on: leucemia L 1210 IGR
# measurement description: "in vivo" activity on leucemia L1210 IGR, 20 mg/kg i.p. days 1, 5, 9
# Set-up: species or system mouse
# condition summary: surviving more than 60 days
measurement name: percentage of cured mice (%)
Your answer should be a plain number; it is taken to be in %.

Reference set (4 entries):
CO[C@@H]1C[C@@H](NC(=O)N(CCCl)N=O)[C@H](O)[C@@H](C)O1 : 100
CO[C@@H]1C[C@@H](O)[C@H](O)[C@@H](CNC(=O)N(CCCl)N=O)O1 : 20
CO[C@@H]1C[C@@H](NC(=O)N(CCCl)N=O)[C@H](O)[C@@H](CNC(=O)N(CCCl)N=O)O1 : 67
CO[C@@H]1C[C@@H](NC(=O)N(CCCl)N=O)[C@H](O)[C@@H](CO)O1 : 47

Kindly consider the entry below.
-- ask // percentage of cured mice lookup, key: `CO[C@@H]1C[C@@H](NC(=O)N(CCCl)N=O)[C@H](OC)[C@@H](C)O1`
-- reply 100
